target entity: URAT-1 transporter (Homo sapiens, UniProt Q96S37)
Construct: expressed in transfected cells
Sequence (Q96S37 with tags, fused parts or gaps): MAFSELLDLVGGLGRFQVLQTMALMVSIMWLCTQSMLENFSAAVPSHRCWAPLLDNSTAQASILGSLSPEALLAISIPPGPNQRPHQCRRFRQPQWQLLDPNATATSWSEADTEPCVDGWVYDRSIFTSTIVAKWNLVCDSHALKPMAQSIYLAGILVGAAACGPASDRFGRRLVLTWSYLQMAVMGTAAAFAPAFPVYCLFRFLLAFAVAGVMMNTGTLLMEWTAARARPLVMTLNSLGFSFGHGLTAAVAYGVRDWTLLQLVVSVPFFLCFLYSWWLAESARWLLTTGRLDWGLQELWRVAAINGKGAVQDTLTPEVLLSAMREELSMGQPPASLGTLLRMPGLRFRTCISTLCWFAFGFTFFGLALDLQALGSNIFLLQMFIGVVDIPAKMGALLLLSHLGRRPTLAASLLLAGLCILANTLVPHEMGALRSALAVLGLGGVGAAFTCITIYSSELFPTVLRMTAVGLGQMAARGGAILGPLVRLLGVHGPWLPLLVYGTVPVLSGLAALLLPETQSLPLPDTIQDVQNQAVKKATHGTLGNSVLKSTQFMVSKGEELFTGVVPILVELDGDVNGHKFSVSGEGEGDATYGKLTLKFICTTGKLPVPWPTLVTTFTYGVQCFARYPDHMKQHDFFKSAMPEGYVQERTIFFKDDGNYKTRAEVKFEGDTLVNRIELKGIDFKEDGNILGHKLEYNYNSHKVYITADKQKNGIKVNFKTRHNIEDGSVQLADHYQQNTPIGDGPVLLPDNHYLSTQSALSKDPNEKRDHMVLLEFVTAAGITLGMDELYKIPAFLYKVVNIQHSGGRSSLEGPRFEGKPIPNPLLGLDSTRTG
experimental details: URAT-1 inhibitor activity: [14C]-uric acid uptake into CHO-URAT1(L)GFP#8 (CHO#8) cells, scintillation proximity
Format: cell-based
pIC50: −log10 of the molar value.
observable: pIC50

compound	pIC50
N#Cc1cc(S(=O)(=O)Nc2nccs2)ccc1Oc1ccc(Cl)nc1 [compound 172]	6.04

(P) COc1ccc(C)c(Oc2cc(F)c(S(=O)(=O)Nc3nncs3)cc2Cl)c1 [compound 327]
(Q) N#Cc1ccc(Oc2ccc(S(=O)(=O)Nc3cscn3)c(F)c2)cc1Cl [compound 225]
(R) COc1ccc(Oc2ccc(S(=O)(=O)Nc3ncns3)cc2C#N)cc1F [compound 257]
query: Your job: order these 3 records by pIC50, ascending. Answer by listing the labels in the requested order.
result: R, P, Q

----------
target entity: URAT-1 transporter (Homo sapiens)
Construct: expressed in transfected cells
experimental details: URAT-1 inhibitor activity: [14C]-uric acid uptake into CHO-URAT1(L)GFP#8 (CHO#8) cells, scintillation proximity
Format: cell-based
observable: IC50

Below are worked cases with known answers.
molecule	IC50
Cc1cc(S(=O)(=O)Nc2cscn2)c(F)cc1Oc1ccc(F)c(F)c1 [compound 223]	> 10 µM
Cc1cc(NS(=O)(=O)c2ccc(Oc3ccc(C#N)c(Cl)c3)c(C#N)c2)on1 [Example 59]	> 10 µM

Okay, next one:
query: Find the recorded IC50 belonging to N#Cc1cc(Oc2cc(F)c(S(=O)(=O)Nc3cscn3)cc2Cl)ccc1F [compound 235] and report it.
result: > 10 µM

----------
target entity: URAT-1 transporter (Homo sapiens)
Construct: expressed in transfected cells
experimental details: URAT-1 inhibitor activity: [14C]-uric acid uptake into CHO-URAT1(L)GFP#8 (CHO#8) cells, scintillation proximity
Assay type: cell-based
pIC50: −log10 of the molar value.
Catalogue of pIC50 values

query: Find the recorded pIC50 belonging to `COc1ccc(Oc2ccc(S(=O)(=O)Nc3nccs3)cc2C#N)cn1` and report it.
result: < 5.44

query: Find the recorded pIC50 belonging to `N#Cc1cc(Oc2ccc(S(=O)(=O)Nc3ncns3)cc2F)ccc1F` and report it.
result: < 5.15

query: Find the recorded pIC50 belonging to `COc1cc(C#N)c(F)cc1Oc1cc(F)c(S(=O)(=O)Nc2nncs2)cc1Cl` and report it.
result: < 5.00

query: Find the recorded pIC50 belonging to `N#Cc1cc(S(=O)(=O)Nc2ncc(F)s2)ccc1Oc1ccc(Cl)cc1C(F)(F)F` and report it.
result: < 5.10

query: Find the recorded pIC50 belonging to `CCOc1ccc(Oc2ccc(S(=O)(=O)Nc3nccs3)cc2C#N)cn1` and report it.
result: < 5.00

query: Find the recorded pIC50 belonging to `N#Cc1cc(S(=O)(=O)Nc2ncc(Cl)s2)ccc1Oc1ccccc1Cl` and report it.
result: 6.07

query: Find the recorded pIC50 belonging to `CC(C)Oc1ccc(F)cc1Oc1ccc(S(=O)(=O)Nc2ncns2)cc1C#N` and report it.
result: 5.45

query: Find the recorded pIC50 belonging to `COc1cccc(Cl)c1Oc1cc(F)c(S(=O)(=O)Nc2nncs2)cc1Cl` and report it.
result: < 5.85

query: Find the recorded pIC50 belonging to `N#Cc1cc(S(=O)(=O)Nc2nccs2)ccc1Oc1ccc(Cl)cc1C(F)(F)F` and report it.
result: 6.17

query: Find the recorded pIC50 belonging to `COc1ccc(F)c(Oc2ccc(S(=O)(=O)Nc3ncns3)cc2C#N)c1F` and report it.
result: 5.78

----------
target entity: URAT-1 transporter (Homo sapiens, UniProt Q96S37)
Construct: expressed in transfected cells
experimental details: URAT-1 inhibitor activity: [14C]-uric acid uptake into CHO-URAT1(L)GFP#8 (CHO#8) cells, scintillation proximity
Format: cell-based
pIC50: −log10 of the molar value.
observable: pIC50

compound	result
CC(C)(F)COc1ncc(Oc2ccc(S(=O)(=O)Nc3nncs3)cc2C#N)cc1Cl [Example 339]	< 5.00
Cc1ccc(Oc2ccc(S(=O)(=O)Nc3ncc(F)s3)cc2C#N)c(Cl)c1 [Example 124]	< 5.20
CC(C)Oc1ccc(Oc2ccc(S(=O)(=O)Nc3nccs3)cc2C#N)cn1 [Example 192]	< 5.00
CC(C)c1cccc(Oc2ccc(S(=O)(=O)Nc3nccs3)c(F)c2)c1 [Example 73]	< 5.00
Cc1ccnc(C)c1Oc1cc(F)c(S(=O)(=O)Nc2nncs2)cc1Cl [compound 308]	< 5.00
N#Cc1cc(S(=O)(=O)Nc2ncc(F)s2)ccc1Oc1ccc(CCCO)cc1 [Example 147]	< 5.00

query: Find the recorded pIC50 belonging to O=S(=O)(Nc1cscn1)c1cc(Br)c(Oc2ccc(F)c(F)c2)cc1F [compound 234] and report it.
result: < 5.00

query: Find the recorded pIC50 belonging to N#Cc1ccc(Oc2c(F)cc(S(=O)(=O)Nc3ncns3)cc2F)cc1Cl [compound 215] and report it.
result: < 5.00

query: Find the recorded pIC50 belonging to Cc1ccc(Cl)cc1Oc1ccc(S(=O)(=O)Nc2ncns2)cc1C#N [Example 40] and report it.
result: < 5.53

query: Find the recorded pIC50 belonging to N#Cc1cc(S(=O)(=O)Nc2ncc(F)s2)ccc1Oc1cccc(C(F)(F)F)c1 [Example 133] and report it.
result: 5.80

query: Find the recorded pIC50 belonging to N#Cc1cc(S(=O)(=O)Nc2ncns2)ccc1Oc1cccc(F)c1F [Example 49] and report it.
result: 5.84

query: Find the recorded pIC50 belonging to N#Cc1cc(S(=O)(=O)Nc2ncns2)ccc1Oc1ccc(C(F)(F)F)nc1 [Example 21] and report it.
result: < 5.00

query: Find the recorded pIC50 belonging to COc1ccc(Cl)c(Oc2ccc(S(=O)(=O)Nc3ncns3)cc2C#N)c1 [compound 261] and report it.
result: 5.74

query: Find the recorded pIC50 belonging to Cc1cc(Oc2ccc(S(=O)(=O)Nc3nccs3)cc2F)ccc1F [Example 74] and report it.
result: < 5.46

query: Find the recorded pIC50 belonging to N#Cc1cc(Oc2ccc(S(=O)(=O)Nc3nncs3)cc2C#N)ccc1F [compound 199] and report it.
result: < 5.20

----------
target entity: URAT-1 transporter (Homo sapiens)
Construct: expressed in transfected cells
experimental details: URAT-1 inhibitor activity: [14C]-uric acid uptake into CHO-URAT1(L)GFP#8 (CHO#8) cells, scintillation proximity
Assay type: cell-based
pIC50: −log10 of the molar value.
Catalogue of pIC50 values

Below are worked cases with known answers.
CC(C)c1cccc(Oc2ccc(S(=O)(=O)Nc3ncns3)cc2C#N)c1 < 5.54
N#Cc1cc(S(=O)(=O)Nc2ncc(F)s2)ccc1Oc1ccc(F)c(F)c1 < 5.92

Okay, next one:
query: Tell me reported pIC50 for `COc1ncc(Oc2ccc(S(=O)(=O)Nc3nncs3)cc2C#N)cc1Cl` , tested with URAT-1 transporter (Homo sapiens).
result: 6.10

----------
target entity: URAT-1 transporter (Homo sapiens)
Construct: expressed in transfected cells
experimental details: URAT-1 inhibitor activity: [14C]-uric acid uptake into CHO-URAT1(L)GFP#8 (CHO#8) cells, scintillation proximity
Format: cell-based
observable: IC50

compound	result
N#Cc1cc(S(=O)(=O)Nc2nccs2)ccc1Oc1ccc(OC(F)(F)F)cc1Br [compound 164]	> 10 µM

query: Find the recorded IC50 belonging to COc1ccc(C(F)(F)F)cc1Oc1ccc(S(=O)(=O)Nc2ncns2)cc1C#N [Example 29] and report it.
result: > 6.08 µM

query: Find the recorded IC50 belonging to COc1c(Cl)cccc1Oc1ccc(S(=O)(=O)Nc2ncns2)cc1C#N [compound 283] and report it.
result: > 8.57 µM

query: Find the recorded IC50 belonging to O=S(=O)(Nc1nccs1)c1ccc(Oc2ccc(C(F)(F)F)cc2C(F)(F)F)c(F)c1 [Example 6] and report it.
result: > 10 µM

----------
Catalogue of IC50 values
target entity: URAT-1 transporter (Homo sapiens)
Construct: expressed in transfected cells
experimental details: URAT-1 inhibitor activity: [14C]-uric acid uptake into CHO-URAT1(L)GFP#8 (CHO#8) cells, scintillation proximity
Assay type: cell-based

compound	result
COc1cc(C#N)ccc1Oc1cc(F)c(S(=O)(=O)Nc2nncs2)cc1Cl	> 10 µM
N#Cc1ccc(Oc2cc(F)c(S(=O)(=O)Nc3cscn3)cc2F)cc1Cl	> 10 µM
N#Cc1cc(Oc2cc(F)c(S(=O)(=O)Nc3cscn3)cc2Br)ccc1F	> 3.13 µM
COc1cc(F)cc(Oc2ccc(S(=O)(=O)Nc3ncns3)cc2C#N)c1	0.479 µM
COc1ccc(OC(F)(F)F)cc1Oc1ccc(S(=O)(=O)Nc2ncns2)cc1C#N	> 7.45 µM

query: Find the recorded IC50 belonging to `O=S(=O)(Nc1nccs1)c1ccc(Oc2ccccc2Br)c(F)c1` and report it.
result: > 10 µM

query: Find the recorded IC50 belonging to `Cc1cc(NS(=O)(=O)c2ccc(Oc3ccc(C#N)c(Cl)c3)c(C#N)c2)no1` and report it.
result: > 10 µM
